Taken from paper PMC8672713.

Quick note: these are IC50 numbers for system: SARS-CoV-2 Mpro (Severe acute respiratory syndrome coronavirus 2)
// note: answer is a bare numeric in µM

Here is how some compounds turned out for IC50.
INPUT SMILES | TEST TARGET | RECORDED MEASUREMENT
O=C(NC[C@@H]1CC2(CCC2)CN1C(=O)c1ccc(F)c(O)c1)c1cncc2ccccc12 | SARS-CoV-2 Mpro (Severe acute respiratory syndrome coronavirus 2) | 11.2
O=C(NC[C@H](NC(=O)c1cncc2sccc12)c1ccc2ccccc2c1)c1cocn1 | SARS-CoV-2 Mpro (Severe acute respiratory syndrome coronavirus 2) | 12.1

# return recorded IC50 for entry `Cc1cncc(C(=O)NC[C@H]2c3ccccc3CCN2C(=O)c2cccn3nnnc23)c1`
10.8
